- assay.text: Toxicity in tadpole assessed as lethality at 0.3125 ppm measured after 72 hrs
- Type: organism-based
- condition: anura, in vivo
measured.attribute: mortality at 72 h, 0.3125 ppm (%)

* COc1cc(-n2cnc3ccc(Cl)cc3c2=O)cc(OC)c1OC | 0

---

- assay.text: Toxicity in tadpole assessed as lethality at 0.3125 ppm measured after 12 hrs
- Type: organism-based
- condition: anura, in vivo
measured.attribute: mortality at 12 h, 0.3125 ppm (%)

- COc1cc(-n2cnc3ccc(Cl)cc3c2=O)cc(OC)c1OC: 0

---

- System: Oncomelania hupensis
- assay.text: Molluscicidal activity against Oncomelania hupensis measured after 24 hrs
- Assay type: functional
Examples of compounds with documented LC90 follow.
measured.attribute: LC90 (ppm)

* Cc1ccc(-n2cnc3ccc(Cl)cc3c2=O)cc1 | 5.37
* Cc1ccc(-n2cnc3c(Cl)cc(Cl)cc3c2=O)c(C)c1 | 7.08
* COc1cc(-n2cnc3ccc([N+](=O)[O-])cc3c2=O)cc(OC)c1OC | 6.61
* COc1ccc(-n2cnc3c(Cl)cc(Cl)cc3c2=O)c(OC)c1 | 8.62
* COc1ccc(-n2cnc3c(Cl)cc(Cl)cc3c2=O)cc1 | 13.18
* O=c1c2cc(Cl)ccc2ncn1-c1ccccc1 | 6.16
* CN(C)c1ccc(-n2cnc3c(Cl)cc(Cl)cc3c2=O)cc1 | 8.13
* O=c1c2cc([N+](=O)[O-])ccc2ncn1-c1ccccc1 | 9.33
* O=c1c2cc(Cl)cc(Cl)c2ncn1-c1ccc([N+](=O)[O-])cc1 | 6.11

FYI, the data here is from ChEMBL document CHEMBL3792356.
